Assay: log P by HPLC on reversed phase columns (EEC directive 79/831 Annex V.A8)
Format: physicochemical
Details: reversed phase HPLC columns; Table 2, amines of formula (III-a); method [a]: LC-MS at pH 2.7, 0.1% formic acid in water / acetonitrile; read-out: logP
Outcome measure: chromatographic logP

{"Molecule": "CC1CC2(CC2)c2cccc(N)c21 (stereo not shown) [Example III-a-16]", "Outcome measure": "chromatographic logP", "Quantitative result": 1.93}

###

// values below are reported logP
Assay: log P by HPLC on reversed phase columns (EEC directive 79/831 Annex V.A8)
Format: physicochemical
Details: Table 1, compounds of formula (I); method [a]: LC-MS at pH 2.7, 0.1% formic acid in water / acetonitrile
Outcome measure: logP

{"Compound": "CCCON=C1CCc2c(NC(=O)c3cn(C)nc3C(F)F)cccc21 [Example 30]", "Result": "3.15[a]"}
{"Compound": "CON=C1CCc2c(NC(=O)c3cn(C)nc3C(F)F)cccc21 [Example 23]", "Result": "2.59[a]"}
{"Compound": "Cc1c(C(=O)Nc2cccc3c2C(C)CC32CC2)cnn1C (centres unmarked) [Example 48]", "Result": "2.55[a]"}
{"Compound": "CCON=C1CC(C)c2c(NC(=O)c3c(C)nn(C)c3F)cccc21 (centres unmarked) [Example 29]", "Result": "2.76[a]"}
{"Compound": "CC1CC(C(C)C)c2cccc(NC(=O)c3cn(C)nc3C(F)F)c21 (centres unmarked) [Example 1]", "Result": "3.74[a]"}
{"Compound": "CON=C1CC(C)c2c(NC(=O)c3cn(C)nc3C(F)F)cccc21 (centres unmarked) [Example 31]", "Result": "2.45[a]"}
{"Compound": "Cc1nn(C)c(F)c1C(=S)Nc1cccc2c1C(C)CC2CC(C)(C)C (centres unmarked) [Example 43]", "Result": "4.87[a]"}
{"Compound": "CC1CC2(CC2)c2cccc(NC(=O)c3c(C(F)(F)F)nn(C)c3F)c21 (centres unmarked) [Example 55]", "Result": "3.72[a]"}
{"Compound": "CC(C)c1nn(C)cc1C(=O)Nc1cccc2c1C(C)CC21CC1 (centres unmarked) [Example 56]", "Result": "3.29[a]"}
{"Compound": "Cn1cc(C(=O)Nc2cccc3c2CCC32CC2)c(C(F)F)n1 [Example 17]", "Result": "2.96[a]"}
{"Compound": "CC1CCc2c(NC(=O)c3cn(C)nc3C(F)F)cccc21 (centres unmarked) [Example 50]", "Result": "3.01[a]"}
{"Compound": "Cc1nn(C)c(O)c1C(=O)Nc1cccc2c1CCC21CC1 [Example 26]", "Result": "2.04[a]"}
{"Compound": "Cn1cc(C(=O)Nc2cccc3c2CCC3O)c(C(F)F)n1 (centres unmarked) [Example 37]", "Result": "1.61[a]"}
{"Compound": "CC(C)C1CCc2c(NC(=O)c3cn(C)nc3C(F)F)cccc21 (centres unmarked) [Example 2]", "Result": "3.6[a]"}
{"Compound": "Cc1nn(C)c(C)c1C(=S)Nc1cccc2c1C(C)CC2CC(C)C (centres unmarked) [Example 40]", "Result": "4.25[a]"}
{"Compound": "Cn1cc(C(=O)Nc2cccc3c2CCC32OCCO2)c(C(F)F)n1 [Example 12]", "Result": "1.9[a]"}
{"Compound": "CC1CC2(CC2)c2cccc(NC(=O)c3c(C4CC4)nn(C)c3Cl)c21 (centres unmarked) [Example 45]", "Result": "4.04[a]"}
{"Compound": "CCc1c(C(=O)Nc2cccc3c2C(C)CC32CC2)cnn1C (centres unmarked) [Example 54]", "Result": "2.99[a]"}
{"Compound": "Cc1nn(C)c(C)c1C(=O)Nc1cccc2c1C(C)CC2C(C)(C)C (centres unmarked) [Example 16]", "Result": "4.13[a]"}
{"Compound": "Cc1nn(C)c(F)c1C(=O)Nc1cccc2c1C(C)CC2CC(C)C (centres unmarked) [Example 20]", "Result": "4.32[a]"}
{"Compound": "CCc1nn(C)cc1C(=O)Nc1cccc2c1C(C)CC21CC1 (centres unmarked) [Example 51]", "Result": "2.99[a]"}
{"Compound": "CCCON=C1CC(C)c2c(NC(=O)c3c(C)nn(C)c3F)cccc21 (centres unmarked) [Example 19]", "Result": "3.24[a]"}
{"Compound": "CC1CC2(CCCCC2)c2cccc(NC(=S)c3cn(C)nc3C(F)F)c21 (centres unmarked) [Example 53]", "Result": "4.67[a]"}
{"Compound": "CC1CC2(CC2(Cl)Cl)c2cccc(NC(=O)c3cn(C)nc3C(F)F)c21 (centres unmarked) [Example 3]", "Result": "3.46[a]"}
{"Compound": "CC1CC(C)c2c(NC(=O)c3cn(C)nc3C(F)F)cccc21 (centres unmarked) [Example 8]", "Result": "3.21[a]"}
{"Compound": "CCCCON=C1CCc2c(NC(=O)c3cn(C)nc3C(F)F)cccc21 [Example 21]", "Result": "3.59[a]"}
{"Compound": "CC1CCc2cccc(NC(=O)c3cn(C)nc3C(F)F)c21 (centres unmarked) [Example 9]", "Result": "2.78[a]"}
{"Compound": "Cc1nn(C)c(C)c1C(=O)Nc1cccc2c1C(C)CC2CC(C)C (centres unmarked) [Example 14]", "Result": "3.87[a]"}
{"Compound": "CC(C)CC1CCc2c(NC(=O)c3cn(C)nc3C(F)F)cccc21 (centres unmarked) [Example 32]", "Result": "4.11[a]"}
{"Compound": "CCCON=C1CC(C)c2c(NC(=O)c3cn(C)nc3C(F)F)cccc21 (centres unmarked) [Example 11]", "Result": "3.26[a]"}
{"Compound": "CC(C)CC1CC(C)c2c(NC(=O)c3cn(C)nc3C(F)F)cccc21 (centres unmarked) [Example 33]", "Result": "4.24[a]"}
{"Compound": "CON=C1CC(C)c2c(NC(=O)c3c(C)nn(C)c3F)cccc21 (centres unmarked) [Example 27]", "Result": "2.33[a]"}
{"Compound": "Cn1cc(C(=O)Nc2cccc3c2CCC3C(C)(C)C)c(C(F)F)n1 (centres unmarked) [Example 28]", "Result": "3.94[a]"}
{"Compound": "CC1CC2(CCCC2)c2cccc(NC(=O)c3cn(C)nc3C(F)F)c21 (centres unmarked) [Example 49]", "Result": "4.31[a]"}
{"Compound": "CCON=C1CC(C)c2c(NC(=O)c3cn(C)nc3C(F)F)cccc21 (centres unmarked) [Example 34]", "Result": "2.78[a]"}
{"Compound": "CC1CC(C(C)C)c2cccc(NC(=O)c3cn(C)nc3C(F)F)c21 (centres unmarked) [Example 6]", "Result": "3.82[a]"}
{"Compound": "CC1CC2(CC2)c2cccc(NC(=O)c3cn(C)nc3C(F)(F)F)c21 (centres unmarked) [Example 10]", "Result": "3.35[a]"}
{"Compound": "CC1CC2(CC2)c2cccc(NC(=S)c3cn(C)nc3C(F)F)c21 (centres unmarked) [Example 38]", "Result": "4.61[a]"}

Reference for the values: patent US9199941B2
